- Test system: SW-620 colon
- TEST_SUMMARY: NCI-60 one-dose screen, 48 h (100 = growth as untreated, 0 = no growth, -100 = all killed)
- DETAILS: 10 µM unless noted
The panel holds about 83,000 compounds, 20% with a hit somewhere; the sample as a whole holds those more often.
PROPERTY: growth (%)

INSERT INTO measurements (compound, property, observed_value) VALUES
  ('O=S(=O)(CC(O)(c1ccccc1)c1ccccc1)CC(O)(c1ccccc1)c1ccccc1', 'growth', 89.6),
  ('O=C1/C(=C/c2ccc(Cl)cc2)CN(Cc2cn(CCNc3ccnc4cc(Cl)ccc34)nn2)C/C1=C\c1ccc(Cl)cc1', 'growth', -92.5),
  ('COC(=O)c1nc(-c2ccccc2)oc1S(=O)(=O)N1CCN(c2cccc(Cl)c2)CC1', 'growth', 61.7),
  ('CCOC(=O)NNC(=S)Nc1ccccc1', 'growth', 110),
  ('NC(N)=Nc1nc2ccccc2o1', 'growth', 95.7),
  ('CCCCCCCCN(CCCCCCCC)CCCCCCNc1cc(OC)cc2cccnc12', 'growth', 10.8),
  ('COc1ccc(-c2nc3sccn3c2/C=C/C(=O)c2cc(F)cc(F)c2)cc1', 'growth', 53.9),
  ('CC(=O)Nc1nc(N)nc(NC(C)=O)c1N=O', 'growth', 101),
  ('Cn1c2ccc(Br)cc2c2c3c(c4c5ccccc5[nH]c4c21)C(=O)N(O)C3=O', 'growth', -12.2),
  ('CCCCC(CC)OC(=O)C(Br)CC (stereo unspecified)', 'growth', 114),
  ('COc1cccc(/C=C2\Oc3cc(OCCCN4CCCC4)ccc3C2=O)c1', 'growth', 92.2),
  ('O=C(CCl)N(C1CCCCC1)C1CCCCC1', 'growth', 113),
  ('CCOC(=O)c1ccc(NC(=O)N2CC(C)OC(C)C2)cc1 (stereo unspecified)', 'growth', 106),
  ('O=C(NS(=O)(=O)c1ccc2ccccc2c1)n1cc(-c2ccncc2)c(-c2ccc(Cl)c(O)c2)n1', 'growth', 95.2),
  ('Cc1c(C(N)=O)sc2c1c(=O)n(Cc1ccccc1)c1nnc(Nc3ccccc3)n21', 'growth', 108),
  ('CCCCOc1ccc(/C=C2/SC(N3CCOCC3)=NC2=O)cc1OCC', 'growth', 96.9),
  ('COc1ccc2[nH]c(=O)c3c4ccccc4cn3c2c1', 'growth', 13.3),
  ('COc1ccc(C(=O)N2NC(=O)/C(=C/c3ccc(F)cc3)N=C2c2ccccc2)cc1', 'growth', 69.3),
  ('N=c1ccc2nc3ccc(N)cc3sc-2c1', 'growth', 31.7),
  ('COC1=C(OC)C(=O)C(CCCCCCCCCC[P+](c2ccccc2)(c2ccccc2)c2ccccc2)=C(C)C1=O', 'growth', -13.2),
  ('CC(C)CC1NC(C)(C)CO1 (stereo unspecified)', 'growth', 106);
